Molecular target: His tagged CRBN+DDB−DLS7+CXU4 (Homo sapiens (Human), UniProt Q96SW2)
Sequence (Q96SW2 whole entry): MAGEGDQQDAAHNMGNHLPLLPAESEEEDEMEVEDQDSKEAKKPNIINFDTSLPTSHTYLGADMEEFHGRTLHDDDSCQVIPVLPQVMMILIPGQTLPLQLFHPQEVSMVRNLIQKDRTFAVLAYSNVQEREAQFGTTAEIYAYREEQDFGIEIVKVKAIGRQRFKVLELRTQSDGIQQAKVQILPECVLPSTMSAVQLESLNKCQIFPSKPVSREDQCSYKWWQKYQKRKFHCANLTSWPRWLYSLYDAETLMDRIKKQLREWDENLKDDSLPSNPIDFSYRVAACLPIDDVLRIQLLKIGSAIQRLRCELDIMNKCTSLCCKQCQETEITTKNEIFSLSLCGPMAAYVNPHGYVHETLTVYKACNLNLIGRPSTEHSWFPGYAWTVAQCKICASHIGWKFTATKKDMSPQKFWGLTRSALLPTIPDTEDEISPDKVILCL
Sequence (Q16531 whole entry partner): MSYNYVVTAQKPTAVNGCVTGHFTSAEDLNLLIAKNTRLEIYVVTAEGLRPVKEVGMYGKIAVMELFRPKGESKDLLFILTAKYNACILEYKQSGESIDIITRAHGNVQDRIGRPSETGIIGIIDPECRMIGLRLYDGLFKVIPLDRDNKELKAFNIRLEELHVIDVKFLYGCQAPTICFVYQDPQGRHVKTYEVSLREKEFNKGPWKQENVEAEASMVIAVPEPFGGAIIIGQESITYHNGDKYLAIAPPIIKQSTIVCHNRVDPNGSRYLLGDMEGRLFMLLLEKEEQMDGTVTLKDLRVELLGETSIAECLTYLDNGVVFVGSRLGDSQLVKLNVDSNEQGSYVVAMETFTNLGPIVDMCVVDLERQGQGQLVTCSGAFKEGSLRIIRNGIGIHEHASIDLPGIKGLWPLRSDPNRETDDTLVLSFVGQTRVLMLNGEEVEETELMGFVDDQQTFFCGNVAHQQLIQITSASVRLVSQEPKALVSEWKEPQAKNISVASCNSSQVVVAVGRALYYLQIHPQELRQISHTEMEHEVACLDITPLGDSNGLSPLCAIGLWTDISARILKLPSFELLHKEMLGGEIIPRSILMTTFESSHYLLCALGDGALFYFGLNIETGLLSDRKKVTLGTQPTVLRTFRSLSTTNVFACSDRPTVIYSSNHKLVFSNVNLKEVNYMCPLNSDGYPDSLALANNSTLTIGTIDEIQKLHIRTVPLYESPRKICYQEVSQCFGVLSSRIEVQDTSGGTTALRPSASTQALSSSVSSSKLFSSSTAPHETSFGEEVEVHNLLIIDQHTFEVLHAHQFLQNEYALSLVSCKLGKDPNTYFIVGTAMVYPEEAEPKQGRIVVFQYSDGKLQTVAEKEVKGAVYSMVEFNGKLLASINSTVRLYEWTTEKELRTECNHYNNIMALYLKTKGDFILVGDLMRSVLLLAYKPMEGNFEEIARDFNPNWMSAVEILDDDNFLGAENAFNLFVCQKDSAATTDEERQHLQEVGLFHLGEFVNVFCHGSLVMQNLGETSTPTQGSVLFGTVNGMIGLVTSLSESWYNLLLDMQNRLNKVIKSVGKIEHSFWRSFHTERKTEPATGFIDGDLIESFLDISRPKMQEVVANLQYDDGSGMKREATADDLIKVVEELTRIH
Assay: IC50 Measurements for Binding to CRBN/DDBI (HTRF)
Settings: Cy5-labeled Thalidomide probe, one hour incubation
pIC50: −log10 of the molar value.
Observation Type: pIC50

Reference set (3 entries):
compound="Cn1cc(-c2cccc(CN3CCC4(CC3)COc3c4ccc4c3CN([C@@H]3CCC(=O)NC3=O)C4=O)c2)cn1 [Compound B14]" result="5.30 to 6.00"
compound="[2H]C([2H])(c1cccc(-c2cnn(C([2H])([2H])[2H])c2)c1)N1CCC2(CC1)COc1c2ccc2c1CN([C@H]1CCC(=O)NC1=O)C2=O [Compound B9]" result="> 7.00"
compound="Cn1cc2ccc(CN3CCC4(COc5c4ccc4c5CN([C@H]5CCC(=O)NC5=O)C4=O)C(F)(F)C3)cc2n1 (stereo partly drawn) [Compound B35]" result="> 7.00"

pIC50 reported for this compound [2H]C([2H])(c1cccc(-c2cnn(C)c2)c1)N1CCC2(COc3c2ccc2c3CN([C@H]3CCC(=O)NC3=O)C2=O)C(F)(F)C1 (stereo partly drawn) [Compound B50] : 6.30 to 7.00

pIC50 reported for this compound [2H]C([2H])(c1cccc(-c2cnn(C)c2)c1)N1CCC2(CC1)COc1c2ccc2c1CN([C@H]1CCC(=O)NC1=O)C2=O [Compound B11] : > 7.00

pIC50 reported for this compound [2H]C([2H])(c1cccc(-c2cnn(C(F)F)c2)c1)N1CCC2(CC1)COc1c2ccc2c1CN([C@H]1CCC(=O)NC1=O)C2=O [Compound B10] : 6.30 to 7.00

---

Target: IKZF1 (Homo sapiens (Human), UniProt Q13422+Q96SW2)
Sequence (Q13422 whole entry): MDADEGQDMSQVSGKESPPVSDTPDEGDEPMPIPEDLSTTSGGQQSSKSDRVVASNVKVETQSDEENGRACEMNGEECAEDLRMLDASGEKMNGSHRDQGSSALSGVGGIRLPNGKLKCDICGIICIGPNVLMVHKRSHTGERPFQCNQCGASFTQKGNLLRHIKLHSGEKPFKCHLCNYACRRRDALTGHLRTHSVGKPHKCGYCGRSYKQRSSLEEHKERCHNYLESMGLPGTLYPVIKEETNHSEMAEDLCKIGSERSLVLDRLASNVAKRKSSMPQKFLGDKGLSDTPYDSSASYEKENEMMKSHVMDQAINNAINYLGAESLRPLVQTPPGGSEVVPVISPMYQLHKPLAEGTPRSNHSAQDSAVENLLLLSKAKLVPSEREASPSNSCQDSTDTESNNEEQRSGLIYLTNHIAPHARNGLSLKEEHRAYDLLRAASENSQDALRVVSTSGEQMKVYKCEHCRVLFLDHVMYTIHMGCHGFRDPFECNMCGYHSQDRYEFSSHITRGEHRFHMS
Sequence (Q96SW2 whole entry): as the sequence (Q96SW2 whole entry) above
Sequence (Q16531 whole entry partner): as the sequence (Q16531 whole entry partner) above
Experiment: IKZF1 HiBit Assay (HEK293T Flp-in-HiBiT-IKZF1 stable cell line)
Assay type: cell-based
Conditions: HEK-293T; HEK293T Flp-in-HiBiT-IKZF1 cells, 6 hrs; read-out: IKZF1 HiBit degradation Dmax
# maps each entry to its Dmax

compound="Cn1cc(-c2cccc(CN3CCC4(COc5c4ccc4c5CN([C@H]5CCC(=O)NC5=O)C4=O)C(F)(F)C3)c2)cn1 (stereo partly shown)" observation_type=Dmax result="< 20%"
compound="O=C1CC[C@H](N2Cc3c(ccc4c3OCC43CCN(Cc4cnn(S(=O)(=O)c5ccccc5Cl)c4)CC3(F)F)C2=O)C(=O)N1 (stereo partly shown)" observation_type=Dmax result="> 40%"
compound="Cn1cc2cc(CN3CCC4(COc5c4ccc4c5CN([C@H]5CCC(=O)NC5=O)C4=O)C(F)(F)C3)ccc2n1 (stereo partly shown)" observation_type=Dmax result="< 20%"

Dmax reported for this compound `O=C1CC[C@H](N2Cc3c(ccc4c3OCC43CCN(Cc4cnn(CC5CCOCC5)c4)CC3)C2=O)C(=O)N1` : < 20%

Dmax reported for this compound [2H]C([2H])([2H])n1cc(-c2cccc(CN3CCC4(COc5c4ccc4c5CN([C@H]5CCC(=O)NC5=O)C4=O)C(F)(F)C3)c2)cn1 (stereo partly shown) : < 20%

Dmax reported for this compound Cn1ncc2cc(CN3CCC4(COc5c4ccc4c5CN([C@H]5CCC(=O)NC5=O)C4=O)C(F)(F)C3)ccc21 (stereo partly shown) : < 20%

Dmax reported for this compound `O=C1CC[C@H](N2Cc3c(ccc4c3NCC43CCN(Cc4ccccc4)CC3)C2=O)C(=O)N1` : < 20%
